Test system: blackgrass
Experiment: Test B pre/postemergence blackgrass
Type: in vivo, Alopecurus myosuroides
Settings: Rate 500 g/ha, Postemergence; scale 0 to 10, 0 no effect, 10 complete control

{"Item smiles": "Cc1nn(C)c(Cl)c1-n1c(=O)on(C(=O)N(c2ccc(F)cc2F)C(C)C)c1=O", "Test system": "blackgrass", "Blackgrass plant response rating": 0}
{"Item smiles": "CC(C)N(C(=O)n1oc(=O)n(C(C)C)c1=O)c1ccc(Cl)cc1", "Test system": "blackgrass", "Blackgrass plant response rating": 8}
{"Item smiles": "CC(C)N(C(=O)n1oc(=O)n(C(C)(C)C)c1=O)c1ccc(Cl)cc1", "Test system": "blackgrass", "Blackgrass plant response rating": 9}
{"Item smiles": "CC(C)N(C(=O)n1oc(=O)n(C2CCCCC2)c1=O)c1ccc(F)cc1F", "Test system": "blackgrass", "Blackgrass plant response rating": 7}
{"Item smiles": "Cc1nn(C)c(Cl)c1-n1c(=O)on(C(=O)N(c2ccccc2)C(C)C)c1=O", "Test system": "blackgrass", "Blackgrass plant response rating": 6}
{"Item smiles": "Cc1cccc(C)c1-n1c(=O)on(C(=O)N(c2ccc(Cl)cc2)C(C)C)c1=O", "Test system": "blackgrass", "Blackgrass plant response rating": 0}
{"Item smiles": "C=CCn1c(=O)on(C(=O)N(c2ccc(Cl)cc2)C(C)C)c1=O", "Test system": "blackgrass", "Blackgrass plant response rating": 8}
{"Item smiles": "CCN(CC)C(=O)n1oc(=O)n(Cc2cccs2)c1=O", "Test system": "blackgrass", "Blackgrass plant response rating": 4}

----------
System: surinam grass
Experiment: Test B pre/postemergence surinam grass
Type: in vivo, Brachiaria decumbens
Settings: Preemergence, Rate 125 g/ha; scale 0 to 10 (0 no effect, 10 complete control)
Reported Plant response rating, B. signalgrass is given for each of the following molecules.

{"Item smiles": "CCc1cccc(C)c1-n1c(=O)on(C(=O)N(c2ccc(F)cc2)C(C)C)c1=O", "Test system": "surinam grass", "Plant response rating, B. signalgrass": 0}
{"Item smiles": "Cc1ccccc1-n1c(=O)on(C(=O)N(c2ccc(C(F)(F)F)cc2)C(C)C)c1=O", "Test system": "surinam grass", "Plant response rating, B. signalgrass": 0}
{"Item smiles": "Cc1cccc(Cl)c1-n1c(=O)on(C(=O)N(c2ccc(Cl)cc2)C(C)C)c1=O", "Test system": "surinam grass", "Plant response rating, B. signalgrass": 0}
{"Item smiles": "Cc1cccc(C)c1-n1c(=O)on(C(=O)N(c2ccc(F)cc2)C(C)C)c1=O", "Test system": "surinam grass", "Plant response rating, B. signalgrass": 0}
{"Item smiles": "Cc1nn(C)c(Cl)c1-n1c(=O)on(C(=O)N(c2ccc(F)cc2F)C(C)C)c1=O", "Test system": "surinam grass", "Plant response rating, B. signalgrass": 0}
{"Item smiles": "CC(C)N(C(=O)n1oc(=O)n(C2CCCCC2)c1=O)c1ccc(F)cc1F", "Test system": "surinam grass", "Plant response rating, B. signalgrass": 2}
{"Item smiles": "CCN(CC)C(=O)n1oc(=O)n(Cc2cccs2)c1=O", "Test system": "surinam grass", "Plant response rating, B. signalgrass": 0}
{"Item smiles": "COc1cccc(C)c1-n1c(=O)on(C(=O)N(c2ccc(F)cc2F)C(C)C)c1=O", "Test system": "surinam grass", "Plant response rating, B. signalgrass": 0}
{"Item smiles": "CC(C)N(C(=O)n1oc(=O)n(C(C)C)c1=O)c1ccc(Cl)cc1", "Test system": "surinam grass", "Plant response rating, B. signalgrass": 0}
{"Item smiles": "Cc1ccccc1Cn1c(=O)on(C(=O)N(c2ccc(F)cc2F)C(C)C)c1=O", "Test system": "surinam grass", "Plant response rating, B. signalgrass": 2}

----------
System: blackgrass
Assay: Test B pre/postemergence blackgrass
Assay type: in vivo, Alopecurus myosuroides
Conditions: Preemergence, Rate 250 g/ha; scale 0 (no effect) to 10 (complete control)
Some molecules, each annotated with its measured Blackgrass plant response rating.

{"Molecule": "COC(=O)C(c1ccccc1)n1c(=O)on(C(=O)N(c2ccc(Cl)cc2)C(C)C)c1=O (centres unmarked)", "Blackgrass plant response rating": 0}
{"Molecule": "Cc1nc(C(C)n2c(=O)on(C(=O)N(c3ccc(F)cc3)C(C)C)c2=O)sc1C (centres unmarked)", "Blackgrass plant response rating": 3}
{"Molecule": "CC(=O)NCCn1c(=O)on(C(=O)N(c2ccc(F)cc2)C(C)C)c1=O", "Blackgrass plant response rating": 8}
{"Molecule": "COCC(OC)n1c(=O)on(C(=O)N(c2ccccc2)C(C)C)c1=O (centres unmarked)", "Blackgrass plant response rating": 9}
{"Molecule": "CC(=O)OCC(CCl)n1c(=O)on(C(=O)N(c2ccc(F)cc2F)C(C)C)c1=O (racemic)", "Blackgrass plant response rating": 3}
{"Molecule": "COC(CCl)n1c(=O)on(C(=O)N(c2ccc(Cl)cc2)C(C)C)c1=O (centres unmarked)", "Blackgrass plant response rating": 7}
{"Molecule": "CCOC(CC)n1c(=O)on(C(=O)N(c2ccc(F)cc2)C(C)C)c1=O (centres unmarked)", "Blackgrass plant response rating": 0}
{"Molecule": "CC(C)N(C(=O)n1oc(=O)n(CCCCCl)c1=O)c1ccccc1", "Blackgrass plant response rating": 8}

----------
System: crabgrass
Experiment: Test B pre/postemergence crabgrass
Type: in vivo, Digitaria sanguinalis
Conditions: Preemergence, Rate 250 g/ha; scale 0 to 10, 0 is no effect, 10 is complete control
The compounds listed here are annotated with their Crabgrass plant response rating.

{"Compound": "CC(C)N(C(=O)n1oc(=O)n(C(C)C)c1=O)c1ccc(F)cc1 [Compound 131]", "Crabgrass plant response rating": 9}
{"Compound": "Cc1nc(C)c(Cn2c(=O)on(C(=O)N(c3ccc(F)cc3)C(C)C)c2=O)s1 [Compound 192]", "Crabgrass plant response rating": 7}
{"Compound": "Cc1nc(C)c(C(C)n2c(=O)on(C(=O)N(c3ccccc3)C(C)C)c2=O)s1 (stereo not drawn) [Compound 442]", "Crabgrass plant response rating": 8}
{"Compound": "CC(C)N(C(=O)n1oc(=O)n(C(C)Cl)c1=O)c1ccccc1 (stereo not drawn) [Compound 438]", "Crabgrass plant response rating": 9}
{"Compound": "CC(C)N(C(=O)n1oc(=O)n(C(C)C(=O)N(C)C)c1=O)c1ccccc1 (stereo not drawn) [Compound 479]", "Crabgrass plant response rating": 9}
{"Compound": "CC(C)N(C(=O)n1oc(=O)n(CC(=O)N(C)C)c1=O)c1ccc(Cl)cc1 [Compound 477]", "Crabgrass plant response rating": 10}
{"Compound": "CC(C)N(C(=O)n1oc(=O)n(CCCl)c1=O)c1ccccc1 [Compound 469]", "Crabgrass plant response rating": 10}
{"Compound": "CC(C)N(C(=O)n1oc(=O)n([C@H](C)c2ccccc2)c1=O)c1ccc(F)cc1 [Compound 179]", "Crabgrass plant response rating": 9}
{"Compound": "CC(C)N(C(=O)n1oc(=O)n(CC2=NOCC2)c1=O)c1ccc(F)cc1 [Compound 466]", "Crabgrass plant response rating": 10}

----------
Test system: surinam grass
Assay: Test B pre/postemergence surinam grass
Type: in vivo, Brachiaria decumbens
Details: Preemergence, Rate 125 g/ha; scale of 0 to 10 where 0 is no effect and 10 is complete control

{"Compound": "CC(C)N(C(=O)n1oc(=O)n(CC2=NOCC2)c1=O)c1ccc(F)cc1 [Compound 466]", "Plant response rating, B. signalgrass": 3}
{"Compound": "CC(C)N(C(=O)n1oc(=O)n(C(C)C2CCC2)c1=O)c1ccc(F)cc1 (stereo not shown) [Compound 718]", "Plant response rating, B. signalgrass": 2}
{"Compound": "CC(C)N(C(=O)n1oc(=O)n(CCN(C)C(=O)c2ccccc2)c1=O)c1ccc(F)cc1F [Compound 762]", "Plant response rating, B. signalgrass": 0}
{"Compound": "CC(C)N(C(=O)n1oc(=O)n(CCl)c1=O)c1ccccc1 [Compound 423]", "Plant response rating, B. signalgrass": 0}

----------
Tested on: wild oat
Assay: Test B pre/postemergence wild oat
Format: in vivo, Avena fatua
Details: Postemergence, Rate 125 g/ha; scale of 0 to 10 where 0 is no effect and 10 is complete control
Parameter measured: Wild oats plant response rating

{"Item smiles": "CC(C)N(C(=O)n1oc(=O)n(C2CCCCC2)c1=O)c1ccc(F)cc1F", "Reported": 0}
{"Item smiles": "C#CC=CC(C)(C)n1c(=O)on(C(=O)N(c2ccccc2)C(C)C)c1=O", "Reported": 0}
{"Item smiles": "CC(C)N(C(=O)n1oc(=O)n(C[C@H](C)Cl)c1=O)c1ccccc1", "Reported": 0}
{"Item smiles": "CCCn1c(=O)on(C(=O)N(c2ccc(F)cc2F)C(C)C)c1=O", "Reported": 2}
{"Item smiles": "CC(C)N(C(=O)n1oc(=O)n(C(C)(C)C)c1=O)c1ccc(Cl)cc1", "Reported": 0}
{"Item smiles": "CCn1c(=O)on(C(=O)N(c2ccccc2)C(C)C)c1=O", "Reported": 3}
{"Item smiles": "CC(C)N(C(=O)n1oc(=O)n(Cc2ccccc2Cl)c1=O)c1ccc(F)cc1", "Reported": 0}
{"Item smiles": "C=CCn1c(=O)on(C(=O)N(c2ccc(Cl)cc2)C(C)C)c1=O", "Reported": 0}
{"Item smiles": "CC(C)c1noc(C(C)C)c1-n1c(=O)on(C(=O)N(c2ccc(F)cc2)C(C)C)c1=O", "Reported": 0}
